Cited source: the supplement of paper PMC13380429

Measured SARS-CoV-2 infection rate values are reported for all entries that follow.
- System: Vero E6 infected with SARS-CoV-2
- Test summary: SARS-CoV-2 infection rate relative to infected DMSO; higher = more infection, active = 60 or less
- Reported conditions: 24 h
Give the number; % is assumed, so skip it.

{"Molecule": "CCCc1cc(=O)[nH]c(=S)[nH]1 [propylthiouracil] (10 µM)", "Result": 104}
{"Molecule": "O=C1CCCC(=O)C1C(=O)c1ccc(C(F)(F)F)cc1[N+](=O)[O-] [nitisinone] (10 µM)", "Result": 110}
{"Molecule": "C[C@H](CCC(=O)O)[C@H]1CC[C@H]2[C@@H]3CC[C@@H]4C[C@H](O)CC[C@]4(C)[C@H]3C[C@H](O)[C@]12C [deoxycholic-acid] (10 µM)", "Result": 104}

Continue with the molecule presented below.
Please indicate SARS-CoV-2 infection rate recorded for C#C[C@]1(O)CC[C@H]2[C@@H]3CCC4=CC(=O)CC[C@@H]4[C@H]3CC[C@@]21C [Norethindrone (Norethisterone)] (10 µM)
112

----------
- Test system: Vero E6 infected with SARS-CoV-2
- Test summary: inhibition of SARS-CoV-2 cytopathic effect; higher = more antiviral protection, active = above 15
- Reported conditions: 10000 nM; 48 h
Measured parameter: inhibition of SARS-CoV-2 cytopathic effect (%)
Give the number; % is assumed, so skip it.

Some solved entries appear below for comparison.
{"Molecule": "O=C(c1ccc(F)c(F)c1Nc1ccc(I)cc1F)N1CC(O)([C@@H]2CCCCN2)C1", "Units of measure": "%", "Result": -12.2}
{"Molecule": "CCCN(CCC)C(=O)C(CCC(=O)OCCCN1CCN(CCOC(=O)Cc2c(C)n(C(=O)c3ccc(Cl)cc3)c3ccc(OC)cc23)CC1)NC(=O)c1ccccc1 (centres undefined)", "Units of measure": "%", "Result": -12.6}
{"Molecule": "COc1cc(OC)c(/C=C2/C(=O)Nc3ccccc32)c(OC)c1", "Units of measure": "%", "Result": -1.88}
{"Molecule": "CCCCn1ccc(N2CCC(c3ccccc3)CC2)c(Cl)c1=O", "Units of measure": "%", "Result": -5.17}
{"Molecule": "CC1(C)CCC(C)(C)c2cc(C3(c4ccc5cc(C(=O)O)ccc5c4)SCCS3)ccc21", "Units of measure": "%", "Result": 2.66}

Recall the reported inhibition of SARS-CoV-2 cytopathic effect of Cc1cccc(Nc2nc(-c3ccncc3)cs2)c1 when tested on Vero E6 infected with SARS-CoV-2.
48.4

Recall the reported inhibition of SARS-CoV-2 cytopathic effect of CCCCNC(=O)NS(=O)(=O)c1ccc(C)cc1 [tolbutamide] when tested on Vero E6 infected with SARS-CoV-2.
-0.3

Recall the reported inhibition of SARS-CoV-2 cytopathic effect of NC(=O)CN1C=CCC(C(N)=O)=C1 [caricotamide] when tested on Vero E6 infected with SARS-CoV-2.
0.44

Recall the reported inhibition of SARS-CoV-2 cytopathic effect of O=C(O)CNC(=O)c1nc(Cl)c2ccccc2c1O when tested on Vero E6 infected with SARS-CoV-2.
-0.7

----------
- System: Vero E6 infected with SARS-CoV-2
- Test summary: morphology score (similarity to uninfected cells); higher = more like uninfected cells
- Reported conditions: 24 h
Measured morphology score values are reported for all entries that follow.
Enter the number alone.

Some solved entries appear below for comparison.
{"Compound": "CNS(=O)(=O)Cc1ccc2[nH]cc(CCN(C)C)c2c1 [sumatriptan] (10 µM)", "morphology score": 0.205}
{"Compound": "O=c1[nH]cnc2c1ncn2[C@H]1CC[C@@H](CO)O1 [didanosine] (10 µM)", "morphology score": 0.186}
{"Compound": "C[C@H]1C[C@H]2[C@@H]3CCC4=CC(=O)C=C[C@]4(C)[C@@]3(Cl)[C@@H](O)C[C@]2(C)[C@@]1(O)C(=O)CO [beclomethasone] (10 µM)", "morphology score": 0.101}

Please indicate morphology score recorded for FC(F)(F)c1cccc(C2=CCN(CCc3ccc4ccccc4c3)CC2)c1 [xaliproden] (10 µM)
-0.0559

Please indicate morphology score recorded for Cc1nnsc1C(=O)Nc1ccc(-n2nc(C(F)(F)F)cc2C(F)(F)F)cc1 (10 µM)
-0.0783

Please indicate morphology score recorded for CCCCCCCCCCCCC[N+](C)(C)Cc1ccccc1 [benzalkonium] (10 µM)
0.0369

Please indicate morphology score recorded for CC(C)c1cc(-c2ccc(F)c3ccccc23)nc(N)n1 (10 µM)
0.153

Please indicate morphology score recorded for Nc1ncnc2c1c(-c1cnc3[nH]ccc3c1)nn2C1CCCC1 (10 µM)
-0.0498

Please indicate morphology score recorded for CCCCCC(O)CCCC(=O)O (centres undefined) (10 µM)
0.00301

----------
- Tested on: Vero E6 infected with SARS-CoV-2
- Test summary: morphology score (similarity to uninfected cells); higher = more like uninfected cells
- Reported conditions: 24 h
Entry class follows morphology score: Low: < 0.03; Medium: ≥ 0.03 and < 0.2; High: ≥ 0.2

{"Molecule": "CO/N=C1\\CN(c2nc3c(cc2F)c(=O)c(C(=O)O)cn3C2CC2)CC1CN (stereo not given) [gemifloxacin] (10 µM)", "Assigned label": "Medium"}

Categorize the following entry: COc1ccc2cc(-c3cc(-c4cc(Cl)cc(Cl)c4)nn3[C@@H](C)c3ccc(C(=O)NCCC(=O)O)cc3)ccc2c1 (10 µM)
Medium

Categorize the following entry: O=C1c2cccc3c2[C@H](CCC3)CN1[C@@H]1CN2CCC1CC2 [palonosetron] (10 µM)
High

Categorize the following entry: CCOC(=O)Nc1cc2c(c(N)n1)N=C(c1ccccc1)[C@H](C)N2 [mivobulin] (10 µM)
Low

----------
- Test system: Vero E6 infected with SARS-CoV-2
- Test summary: inhibition of SARS-CoV-2 cytopathic effect; higher = more antiviral protection, active = above 15
- Reported conditions: 100 nM; 48 h
Measured inhibition of SARS-CoV-2 cytopathic effect values are reported for all entries that follow.
Give the number; % is assumed, so skip it.

Some solved entries appear below for comparison.
{"Compound": "C=CCc1cccc(/C=N/NC(=O)CN2CCN(Cc3ccccc3)CC2)c1O", "Units of measure": "%", "Result": 4.72}
{"Compound": "O=c1cc[nH]c(=O)[nH]1", "Units of measure": "%", "Result": 2.09}
{"Compound": "CO[C@H]1[C@H](O)[C@@H](O)[C@@H](O)[C@H](O)[C@@H]1O", "Units of measure": "%", "Result": -2.68}
{"Compound": "O=C1NC(O)CCN1[C@@H]1O[C@H](CO)[C@@H](O)[C@H]1O (stereo not given in full) [tetrahydrouridine]", "Units of measure": "%", "Result": 0.47}
{"Compound": "O=C(O)c1cc(O)c2c(Cl)cc(Cl)cc2n1", "Units of measure": "%", "Result": -2.79}
{"Compound": "COC(=O)Nc1nc2cc([S+]([O-])c3ccccc3)ccc2[nH]1 (stereo not given)", "Units of measure": "%", "Result": 6.94}

Recall the reported inhibition of SARS-CoV-2 cytopathic effect of CC(C)c1c2cc(-c3ccnc(N[C@H]4CC[C@H](NC5CCOCC5)CC4)n3)ccc2nn1C when tested on Vero E6 infected with SARS-CoV-2.
-2.09

Recall the reported inhibition of SARS-CoV-2 cytopathic effect of O=C(Cn1c(=O)sc2ccc(Cl)cc21)N1CCN(CCO)CC1 [tiaramide] when tested on Vero E6 infected with SARS-CoV-2.
-3.6

Recall the reported inhibition of SARS-CoV-2 cytopathic effect of CCC1(c2ccccc2)C(=O)NCNC1=O when tested on Vero E6 infected with SARS-CoV-2.
-1.1

Recall the reported inhibition of SARS-CoV-2 cytopathic effect of CCN[C@H]1C[C@H](C)S(=O)(=O)c2sc(S(N)(=O)=O)cc21 [dorzolamide] when tested on Vero E6 infected with SARS-CoV-2.
-4.56

----------
- System: Vero E6 infected with SARS-CoV-2
- Test summary: SARS-CoV-2 infection rate relative to infected DMSO; higher = more infection, active = 60 or less
- Reported conditions: 24 h
Measured parameter: SARS-CoV-2 infection rate (%)
Give the number; % is assumed, so skip it.

{"Compound": "CO[C@@]1(NC(=O)CSC[C@@H](N)C(=O)O)C(=O)N2C(C(=O)O)=C(CSc3nnnn3C)CS[C@@H]21 [cefminox] (10 µM)", "Result": 115}
{"Compound": "CSC[C@H](N)C(=O)O [S-methylcysteine] (10 µM)", "Result": 102}
{"Compound": "COc1cn(-c2ccc(-n3cccn3)cc2F)nc(-c2ccnn2-c2ccccc2)c1=O (10 µM)", "Result": 112}

Please indicate SARS-CoV-2 infection rate recorded for C[C@H](O)[C@H](O)[C@H]1CNc2nc(N)[nH]c(=O)c2N1 [sapropterin] (10 µM)
95.5

Please indicate SARS-CoV-2 infection rate recorded for CC(=O)c1ccc2c(c1)C(=O)C1(CC1)O2 [spizofurone] (10 µM)
112

Please indicate SARS-CoV-2 infection rate recorded for Cc1cccc(Oc2cnc(=O)[nH]c2)c1 [tolimidone] (10 µM)
106

Please indicate SARS-CoV-2 infection rate recorded for CCc1cn([C@H]2C[C@H](O)[C@@H](CO)O2)c(=O)[nH]c1=O [edoxudine] (10 µM)
108

Please indicate SARS-CoV-2 infection rate recorded for c1ccc2c(c1)Sc1ccccc1N2C[C@H]1CN2CCC1CC2 [levomequitazine] (10 µM)
86

Please indicate SARS-CoV-2 infection rate recorded for Cc1ncc(CO)c(C=O)c1O [pyridoxal] (10 µM)
109

Please indicate SARS-CoV-2 infection rate recorded for COc1ccc(Br)cc1S(=O)(=O)NC(=O)/C=C/c1ccccc1Cc1ccc2ccccc2c1 (10 µM)
79.5

Please indicate SARS-CoV-2 infection rate recorded for NCCc1cc[nH]n1 [betazole] (10 µM)
105

Please indicate SARS-CoV-2 infection rate recorded for O=C1C(=C(O)/C=C/c2ccc(O)cc2)C(=O)[C@@](O)([C@@H]2O[C@H](CO)[C@@H](O)[C@H](O)[C@H]2O)C(=O)[C@H]1[C@@H]1O[C@H](CO)[C@@H](O)[C@H](O)[C@H]1O (10 µM)
104
